The origin of these recorded values is the supplement of paper PMC12350171.

System: Yersinia pseudotuberculosis
Assay: growth AUC normalised to DMSO control (fraction of control); higher = less growth inhibition, active = hit call of the paper
Details: 20 µM
Where a name gives a salt, the structure may show the parent alone.
METRIC_NAME: growth AUC normalised to DMSO control

COMPOUND	TARGET_UNDER_TEST	growth AUC normalised to DMSO control
CCC(=O)OCC(=O)[C@@]1(OC(=O)CC)[C@H](C)C[C@H]2[C@H]3[C@H]([C@@H](O)C[C@@]21C)[C@@]1(C)C=CC(=O)C=C1C[C@H]3Cl [Alclometasone dipropionate]	Yersinia pseudotuberculosis	1.01 (inactive)
C[C@H]1O[C@@H](O[C@H]2[C@@H](O)C[C@H](O[C@H]3[C@@H](O)C[C@H](O[C@H]4CC[C@@]5(C)[C@H](CC[C@@H]6[C@@H]5C[C@@H](O)[C@]5(C)[C@@H](C7=CC(=O)OC7)CC[C@]65O)C4)O[C@@H]3C)O[C@@H]2C)C[C@H](O)[C@@H]1O	Yersinia pseudotuberculosis	0.993 (inactive)
NC(=O)N1c2ccccc2CC(=O)c2ccccc21 [Oxcarbazepine]	Yersinia pseudotuberculosis	0.992 (inactive)
Cc1c(Cl)cccc1Nc1ccccc1C(=O)O	Yersinia pseudotuberculosis	0.963 (inactive)
C1CCC(C(CC2CCCCN2)C2CCCCC2)CC1 (stereo unspecified) [Perhexiline maleate]	Yersinia pseudotuberculosis	1.01 (inactive)

// next item, growth AUC normalised to DMSO control requested
Quick check: growth AUC normalised to DMSO control of C[C@H](O)C(=O)Nc1c(I)c(C(=O)NC(CO)CO)c(I)c(C(=O)NC(CO)CO)c1I ? 1.03 (inactive)

* * *

Test system: P. vulgatus WT
Test: growth AUC normalised to DMSO control (median) (fraction of control); higher = less growth inhibition, active = hit call of the paper
Settings: 20 µM
Counter-ions that a name gives are not always drawn.
The categories you may choose from are Y for active, N for inactive

Answered examples (3):
COMPOUND	CATEGORY_LABEL
CC[N+](C)(C)Cc1ccccc1Br [Bretylium tosylate]	N
CC(C)NCC(O)COc1ccc(CCOCC2CC2)cc1 (configuration not stated) [Betaxolol hydrochloride]	N
C[C@]12CC[C@@H]3c4ccc(OS(=O)(=O)O)cc4CC[C@H]3[C@@H]1CCC2=O [Estropipate piperazine salt]	N

Hi, sorry to bother you, what did the test record for CCOC(=O)OC(C)OC1=C(C(=O)Nc2ccccn2)N(C)S(=O)(=O)c2ccccc21 (configuration not stated) ? N

Another compound to look at: CN1CCC[C@@H]1CCO[C@](C)(c1ccccc1)c1ccc(Cl)cc1 [Clemastine fumarate] N

Another compound to look at: CC(=O)Oc1c(C)cccc1C(=O)O N

Another compound to look at: C/C=C(/C(=C/C)c1ccc(O)cc1)c1ccc(O)cc1 N

Another compound to look at: Cc1ncc(CO)c(CO)c1O [Pyridoxine hydrochloride] N

Another compound to look at: Nc1c2ccccc2nc2ccccc12 N

Another compound to look at: CC1(C)S[C@@H]2[C@H](NC(=O)Cc3ccccc3)C(=O)N2[C@H]1C(=O)O [Benzylpenicillin sodium] Y

Another compound to look at: Cc1cc2cc3c(C)cc(=O)oc3c(C)c2o1 N

Another compound to look at: COc1ccc(-c2noc(CC(=O)O)c2-c2ccc(OC)cc2)cc1 N

Another compound to look at: CC(C)NCC(O)c1ccc(O)c(O)c1 (single isomer, unassigned; (-)) [(-) Isoproterenol hydrochloride] N

Another compound to look at: CNC(C)CCC=C(C)C (configuration not stated) [Isometheptene mucate] N

Another compound to look at: COc1cccc(CCc2ccccc2OCC(CN(C)C)OC(=O)CCC(=O)O)c1 (configuration not stated) [Sarpogrelate hydrochloride] N

Another compound to look at: CO[C@H]1/C=C/O[C@@]2(C)Oc3c(C)c(O)c4c(O)c(c5c(nc6cc(C)ccn65)c4c3C2=O)NC(=O)/C(C)=C\C=C\[C@H](C)[C@H](O)[C@@H](C)[C@@H](O)[C@@H](C)[C@H](OC(C)=O)[C@@H]1C Y

Another compound to look at: C#C[C@]1(OC(C)=O)CC[C@H]2[C@@H]3CCC4=CC(=NO)CC[C@@H]4[C@H]3CC[C@@]21CC (mixture of isomers) [Norgestimate] N

* * *

Tested on: S. enterica typhimurium tolC KO
Assay: growth AUC normalised to DMSO control (median) (fraction of control); higher = less growth inhibition, active = hit call of the paper
Conditions: 20 µM
Structures can show the parent of a compound that is named as a salt.
METRIC_NAME: growth AUC normalised to DMSO control
// no unit string in output, number only

Look over these answered cases.
COMPOUND	MEAS_VALUE
CCCc1c2oc(C(=O)O)cc(=O)c2cc2c(=O)cc(C(=O)O)n(CC)c12 [Nedocromil sodium]	0.995
CN(C)CCn1nnnc1SCC1=C(C(=O)O)N2C(=O)[C@@H](NC(=O)Cc3csc(N)n3)[C@H]2SC1 [Cefotiam hydrochloride]	0.00289
CC(C)Nc1ncccn1	1
NCCNCCNCCNCCN [Tetraethylenepentamine pentahydrochloride]	1
COc1cccc2c1C(=O)c1c(O)c3c(c(O)c1C2=O)C[C@@](O)(C(C)=O)C[C@@H]3O[C@H]1C[C@H](N)[C@H](O)[C@H](C)O1 [Daunorubicin hydrochloride]	0.00353

Quick check: growth AUC normalised to DMSO control of C#CCN(C)CCCOc1ccc(Cl)cc1Cl [Clorgyline hydrochloride] ? 0.93

Another compound to look at: O=C1NCCN1CCN1CCC(c2cn(-c3ccc(F)cc3)c3ccc(Cl)cc23)CC1 0.949

Another compound to look at: C[C@@H](O)[C@H]1C(=O)N2C(C(=O)O)=C(S[C@@H]3CN[C@H](CNS(N)(=O)=O)C3)[C@H](C)[C@H]12 [Doripenem monohydrate] 0.00595

Another compound to look at: COC(=O)Nc1nc2cc(C(=O)c3ccc(F)cc3)ccc2[nH]1 1

Another compound to look at: CC(C)[C@H](N)C(=O)OCCOCn1cnc2c(=O)nc(N)[nH]c21 [Valacyclovir hydrochloride] 1.02

* * *

Tested on: Salmonella enterica typhimurium
Assay: growth AUC normalised to DMSO control (fraction of control); higher = less growth inhibition, active = hit call of the paper
Settings: 20 µM
METRIC_NAME: growth AUC normalised to DMSO control
// no unit string in output, number only

Look over these answered cases.
COMPOUND	growth AUC normalised to DMSO control
N#Cc1ccc(C(c2ccc(C#N)cc2)n2cncn2)cc1	1.01
C/C(=C(\CCOP(=O)(O)O)SC(=O)c1ccccc1)N(C=O)Cc1cnc(C)nc1N	0.997
COc1cccc(N(C)C(=S)Oc2ccc3c(c2)CCCC3)n1 [Liranaftate]	1.02
CCc1oc2ccccc2c1C(=O)c1cc(Br)c(O)c(Br)c1	1.01

// next item, growth AUC normalised to DMSO control requested
Quick check: growth AUC normalised to DMSO control of NC[C@H]1CC[C@H](C(=O)O)CC1 ? 1

* * *

Test system: Shigella flexneri
Experiment: growth AUC normalised to DMSO control (fraction of control); higher = less growth inhibition, active = hit call of the paper
Details: 20 µM
Where a name gives a salt, the structure may show the parent alone.
METRIC_NAME: growth AUC normalised to DMSO control
// no unit string in output, number only

Query growth AUC normalised to DMSO control on Shigella flexneri for Nc1ccn([C@@H]2O[C@H](CO)[C@@H](O)C2(F)F)c(=O)n1 [Gemcitabine] 1.04

Another molecule to look at: NCCCCCC(=O)O [Aminocaproic acid] 1.06

Another molecule to look at: CC(C)(C#N)c1cc(Cn2cncn2)cc(C(C)(C)C#N)c1 [Anastrozole] 1.07

Another molecule to look at: CC(=O)[C@H]1CC[C@H]2[C@@H]3C=CC4=CC(=O)CC[C@@]4(C)[C@@H]3CC[C@]12C [Dydrogesterone] 0.986

Another molecule to look at: NS(=O)(=O)c1cc(Cl)c(Cl)c(S(N)(=O)=O)c1 [Dichlorphenamide] 1.06

Another molecule to look at: CCCCC[C@H](O)/C=C/[C@H]1[C@H](O)CC(=O)[C@@H]1CCCCCCC(=O)O [Alprostadil] 0.989

Another molecule to look at: CC(CCc1ccc(O)cc1)NCCc1ccc(O)c(O)c1 (centres undefined) [Dobutamine hydrochloride] 0.976

Another molecule to look at: Nc1ccc(O)c(C(=O)O)c1 [Mesalamine] 1.02

Another molecule to look at: CN(C)CCOC1=Cc2ccccc2Sc2ccc(Cl)cc21 [Zotepine] 1

* * *

We begin with a simple list: items and their reported growth AUC normalised to DMSO control.
Test system: Shigella flexneri
Assay: growth AUC normalised to DMSO control (fraction of control); higher = less growth inhibition, active = hit call of the paper
Conditions: 20 µM
Counter-ions that a name gives are not always drawn.
// no unit string in output, number only

COMPOUND	TARGET_UNDER_TEST	growth AUC normalised to DMSO control
CC1CCc2c(N3CCC(O)CC3)c(F)cc3c(=O)c(C(=O)O)cn1c23 (stereo not drawn)	Shigella flexneri	0.0399

Quick check: growth AUC normalised to DMSO control of NS(=O)(=O)c1cc2c(cc1C(F)(F)F)NC(Cc1ccccc1)NS2(=O)=O (stereo not drawn) [Bendroflumethiazide] ? 1.01

Another compound to look at: CN(C)CCC[C@@]1(c2ccc(F)cc2)OCc2cc(C#N)ccc21 [Escitalopram oxalate] 0.991

Another compound to look at: COc1cc([S+](C)[O-])ccc1-c1nc2cccnc2[nH]1 (stereo not drawn) 1.03

Another compound to look at: CC[C@H](C)C(=O)O[C@H]1C[C@@H](C)C=C2C=C[C@H](C)[C@H](CC[C@@H]3C[C@@H](O)CC(=O)O3)[C@H]21 0.997

Another compound to look at: CN1C(C(=O)Nc2ccccn2)=C(O)c2sccc2S1(=O)=O 0.94

Another compound to look at: COc1ccc(NS(=O)(=O)c2ccc(N)cc2)nn1 1.04

Another compound to look at: c1coc(CNc2ncnc3[nH]cnc23)c1 1.02
